- target or system: Gal(b1-4)GlcNAc(b1-2)[Gal(b1-4)GlcNAc(b1-4)]Man(a1-3)[GlcNAc(b1-4)][Gal(b1-4)GlcNAc(b1-2)Man(a1-6)]Man(b1-4)GlcNAc(b1-4)GlcNAc
- assay method text: glycan array binding signal (z-score within array); higher = stronger binding
- test conditions: glycan notation: IUPAC condensed, linker removed
This excerpt belongs to a sample that is enriched for the strongest signals.
recorded metric: glycan array binding signal (z-score)
Answers are plain numbers.

Worked examples, 3 binders total:
binder: Fm1D (Escherichia coli) (protein) FSCNVDGGSSIGAGTTSVYVNLDPVIQPGQNLVVDLSQHISCWNDYGGWYDTDHINLVQGSAFAGSLQSYKGSLYWNNVTYPFPLTTNTNVLDIGDKTPMPLPLKLYITPVGAAGGVVIKAGEVIARIHMYKIATLGSGNPRNFTWNIISNNSVVMPTHHHHHH
glycan array binding signal (z-score): -0.147
--
binder: FliC (Clostridium difficile) (protein) MRVNTNVSALIANNQMGRNVNGQSKSMEKLSSGVRIKRAADDAAGLAISEKMRAQIKGLDQAGRNVQDGISVVQTAEGSLEETGNILQRMRTLSLQSANEINNTEEREKIADELTQLKDEIERISSSTEFNGKKLLDGTSSTIRLQVGASYGTNVSGTSNNNNEIKIQLVNTASIMASAGITTASIGSMKAGGTTGTDAAKTMVSSLDAALKSLNSSRAKLGAQQNRLESTQNNLNNTLENVTAAESRIRDTDVASEMVNLSKMNILVQASQSMLAQANQQPQGVLQLLG
glycan array binding signal (z-score): -0.113
--
binder: Epa3to1 (Candida glabrata) (protein) MGSSHHHHHHSSGLVPRGSHMKRELSSQNPFGYPIGCSPQDVAIIPGLTMELYSYPIVSGTPPNCYDASYVDPEYPRTGYLKRKMVGKSTGVTGNLNYKYSVEKACMVKYGNLPAGYNYNEPLTVSNFTMILYGYFKAQTTGLHTFFVNADDLLYINFGAGNAFDCCKREDSKTKLGEYVAYDIWHVDSSKNKVSLFLEKDLYYPIRMFFNNREYDSSLDLSFSVNGATDQISDFSGYLYSVPDQPDTCPAHIGYDTTCR
glycan array binding signal (z-score): 0.229

Recorded glycan array binding signal (z-score) for Flo1 (Saccharomyces cerevisiae), P32768 (protein) SGATEACLPAGQRKSGMNINFYQYSLKDSSTYSNAAYMAYGYASKTKLGSVGGQTDISIDYNIPCVSSSGTFPCPQEDSYGNWGCKGMGACSNSQGIAYWSTDLFGFYTTPTNVTLEMTGYFLPPQTGSYTFKFATVDDSAILSVGGATAFNCCAQQQPPITSTNFTIDGIKPWGGSLPPNIEGTVYMYAGYYYPMKVVYSNAVSWGTLPISVTLPDGTTVSDDFEGYVYSFDDDLSQSNCTVPDPSNY , please?
0.797
